molecular target: human MC3R (human, UniProt P41968 1-323); assay: cell-based or functional assay
Sequence (P41968 whole entry): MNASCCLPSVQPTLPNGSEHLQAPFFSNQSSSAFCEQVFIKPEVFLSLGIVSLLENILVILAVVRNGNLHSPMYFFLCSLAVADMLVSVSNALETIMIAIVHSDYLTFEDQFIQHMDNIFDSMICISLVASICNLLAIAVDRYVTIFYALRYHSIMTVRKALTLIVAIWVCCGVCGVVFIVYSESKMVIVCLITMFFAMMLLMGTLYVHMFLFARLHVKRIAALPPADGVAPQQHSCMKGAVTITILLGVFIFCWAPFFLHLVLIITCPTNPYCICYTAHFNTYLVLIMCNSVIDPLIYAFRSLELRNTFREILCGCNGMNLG
Non-standard residues stand in square brackets, D forms with d. PKcap1 = N-terminal cap C18 diacid-γGlu-mPEG2; Nle = CCCC[C@H](N)C(=O)O
Give MC3R cAMP (EC50) for every item shown.
Numeric answer only, unit nM assumed.

Reported MC3R cAMP (EC50) for PKcap1-G[Nle][dA]HFR[dW]DRFG-OH [CTX-1147] : what is it? 556

Moving on to the next binder: Ac-SGH[dF]R[dW]D-NH2 (SMILES CC(=O)N[C@@H](CO)C(=O)NCC(=O)N[C@@H](Cc1c[nH]cn1)C(=O)N[C@H](Cc1ccccc1)C(=O)N[C@@H](CCCNC(=N)N)C(=O)N[C@H](Cc1c[nH]c2ccccc12)C(=O)N[C@@H](CC(=O)O)C(N)=O) [CTX-1111] 17100

Same question, Ac-V[Nle][dA]HFR[dW]DRFG-OH (SMILES CCCC[C@H](NC(=O)[C@@H](NC(C)=O)C(C)C)C(=O)N[C@H](C)C(=O)N[C@@H](Cc1c[nH]cn1)C(=O)N[C@@H](Cc1ccccc1)C(=O)N[C@@H](CCCNC(=N)N)C(=O)N[C@H](Cc1c[nH]c2ccccc12)C(=O)N[C@@H](CC(=O)O)C(=O)N[C@@H](CCCNC(=N)N)C(=O)N[C@@H](Cc1ccccc1)C(=O)NCC(=O)O) [CTX-1121] this time 3.1
